- System: M. avium
- Measurement Protocol: 45 hr MIC against M. avium (NTM)
- Type: cell-based, Mycobacterium avium
- Condition Set: M. avium Chester ATCC 700898
Ends that are not written are not given here.
Consider the following sequences and their measured 45 hr MIC readings.
Numbers only; they are read as µg/mL.

Study these solved cases before continuing.
MARSRRRMSKRSSRRSFRKYAKTHKKNFKARSMRGGIRL [Ecp3] : 1
MKLTKSDIAYREALGLSTTDPLPAEIGMVTRRANRLKRPRKTARFR [Myo1] : 8
MARSRRRMSKRSSRRSFRKYAKSHKKNFKARSMRGGIRL [Ecp2] : 2
MAKKIRNKARDRRIFTRTASRMHKANRTPRFMRGGIRL [ALCES1] : 8

We next turn to a different sequence, shown below.
For M. avium, provide 45 hr MIC of MRRKKMSRGKSKKLFRRTAKRVHRKNLRARPMRGGIRM [AVQ206] please.
1

---

Consider the following sequences and their measured MIC readings.
- System: carbapenem-resistant bacterial strains
- Measurement Protocol: organism not typed
- Type: cell-based
- Condition Set: carbapenem-resistant isolate PA23

Study these solved cases before continuing.
MRRKVKNTKRHQWRLTHSARSIKRANIMPSNPRGGRRF [Spi2] : >8 µg/mL
MRKRMSKRVDKKVFRRTAASAKKINIDPKIYRGGIRL [Osp1] : >8 µg/mL

We next turn to a different sequence, shown below.
Item MMKYRKKMSAKSSRKQFTKGAMKVKGKNFTKPMRGGIRL [Unp5] has what recorded MIC?
>8 µg/mL

---

- Tested on: M. fortuitum
- Measurement Protocol: 45 hr MIC against M. fortuitum (NTM)
- Format: cell-based, Mycobacterium fortuitum
- Condition Set: M. fortuitum subsp. Fortuitum da Costa Cruz. ATCC 6841
Test Readout: 45 hr MIC (µg/mL)
Numbers only; they are read as µg/mL.

Study these solved cases before continuing.
MIVRRHKMSRRRSRKLFSKTASRTRSKNLRSRPMRGGYRI [Unp4] : 4
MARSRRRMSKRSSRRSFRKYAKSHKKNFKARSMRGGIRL [Ecp2] : 4
MAYRGFKTSRVVKHRVRRRWFNHRRRYR [Spi1] : 8
MRRKVKNTKRHQWRLTHSARSIKRANIMPSNPRGGRRF [Spi2] : 4
MRRPRKMNYKKSKRMFSRTAARTHRKNSLRGSRPMRGGIRL [Gkh1] : 1
MRLKMARRRYRLPRRRSRRLFSRTALRMHPRNRLRRIMRGGIRF [Chp2] : 2
MRRYNVNKGKSAKKFRKQVSKTKVANLRSNPMRGGWRL [AGT915] : 1
MARRRYRLPRRRSRRLFSRTALRMHPRNRLRRIMRGGIRF [Chp6] : 4
MVRRRRLRRRISRRIFRRTVARVGRRRRSFRGGIRF [Chp1] : 16
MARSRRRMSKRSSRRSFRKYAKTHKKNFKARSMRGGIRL [Ecp3] : 2

For M. fortuitum, provide 45 hr MIC of MKPLKRKPVQKARSAAKFRRNVSTVKAANMAVKPMRGGWRF [Fen7875] please.
8

For M. fortuitum, provide 45 hr MIC of MRRKKMSRGKSKKLFRRTAKRVHRKNLRARPMRGGIRM [AVQ206] please.
2

For M. fortuitum, provide 45 hr MIC of MRPVKRSRVNKARSAGKFRKQVGKTKMANLRSNPMRGGWRL [HH3930] please.
8

For M. fortuitum, provide 45 hr MIC of MRRRRLSRRTSRRFFRKGLKVRRRNLRARPMRGGFRI [Unp2] please.
2

For M. fortuitum, provide 45 hr MIC of MKMRKRTDKRVFTRTAAKSKKVNIAPKIFRGGIRL [Unp1] please.
8

For M. fortuitum, provide 45 hr MIC of MARRYRLSRRRSRRLFSRTALRMHRRNRLRRIMRGGIRF [Chp4] please.
4

For M. fortuitum, provide 45 hr MIC of MSKKRSRMSRRRSKKLFSKTALRTKSVNTRPPMRGGFRF [Chp8] please.
2

---

- Tested on: M. intracellulare
- Measurement Protocol: 45 hr MIC against M. intracellulare (NTM)
- Format: cell-based, Mycobacterium intracellulare
- Condition Set: M. intracellulare (Cuttino and McCabe) Runyon ATCC 13950
Test Readout: 45 hr MIC (µg/mL)
Numbers only; they are read as µg/mL.

MKPLKRKPVQKARSAAKFRRNVSTVKAANMAVKPMRGGWRF [Fen7875] : 8

We next turn to a different sequence, shown below.
Item MKMRKRTDKRVFTRTAAKSKKVNIAPKIFRGGIRL [Unp1] has what recorded 45 hr MIC?
32

---

Consider the following sequences and their measured MIC readings.
- Tested on: Enterobacter cloacae
- Measurement Protocol: microbe, parasite or virus in culture
- Type: cell-based
- Condition Set: Enterobacter cloacae ATCC 13047; CAA supplemented with human serum
- Method: Determination of Minimal Inhibitory Concentrations (MIC). Additional MIC testing was performed for several peptides against the ESKAPE pathogens Escherichia coli, Enterobacter cloacae, Klebsiella pneumoniae, and Acinetobacter baumannii, in CAA supplemented with human serum (Table D).

Study these solved cases before continuing.
MKRKPMSRKASQKTFKKNTGVQRMNHLNPRAMRGGIRL [Bdp1] : >32 µg/mL
MAEQYELSQEQSEQLFSETALQMHEQNELQEIMQGGIEF [Chp5] : >32 µg/mL

We next turn to a different sequence, shown below.
Item MKMRKRTDKRVFTRTAAKSKKVNIAPKIFRGGIRL [Unp1] has what recorded MIC?
>32 µg/mL

---

- System: Acinetobacter baumannii
- Measurement Protocol: microbe, parasite or virus in culture
- Type: cell-based
- Condition Set: A. baumannii isolates (n per peptide in table)
Test Readout: MIC50 (mg/L)
Numbers only; they are read as mg/L.

Study these solved cases before continuing.
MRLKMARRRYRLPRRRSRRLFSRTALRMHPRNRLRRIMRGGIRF [Chp2] : 0.5
MSLRRHKLSRKASKRIFRKGASRTKTLNTRATPMRGGFRI [Chp9] : 2
MMKYRKKMSAKSSRKQFTKGAMKVKGKNFTKPMRGGIRL [Unp5] : 4
MAKKIRNKARDRRIFTRTASRMHKANRTPRFMRGGIRL [ALCES1] : 2
MAYRGFKTSRVVKHRVRRRWFNHRRRYR [Spi1] : 1
MRKRMSKRVDKKVFRRTAASAKKINIDPKIYRGGIRL [Osp1] : 8

Item MRRPRKMNYKKSKRMFSRTAARTHRKNSLRGSRPMRGGIRL [Gkh1] has what recorded MIC50?
0.5

Item MARSRRRMSKRSSRRSFRKYAKTHKRNFKARSMRGGIRL [Ecp1] has what recorded MIC50?
0.5

Item MRRKVKNTKRHQWRLTHSARSIKRANIMPSNPRGGRRF [Spi2] has what recorded MIC50?
2

---

- System: M. avium
- Measurement Protocol: 45 hr MIC against M. avium (NTM)
- Format: cell-based, Mycobacterium avium
- Condition Set: M. avium Chester ATCC 700898
Test Readout: 45 hr MIC

Study these solved cases before continuing.
MRRKVKNTKRHQWRLTHSARSIKRANIMPSNPRGGRRF [Spi2] : >64 µg/mL
MRRYNVNKGKSAKKFRKQVSKTKVANLRSNPMRGGWRL [AGT915] : >64 µg/mL

We next turn to a different sequence, shown below.
Item MAYRGFKTSRVVKHRVRRRWFNHRRRYR [Spi1] has what recorded 45 hr MIC?
>64 µg/mL

These data points were gathered from patent US20220401514A1.
